system tested: T1, GR (Homo sapiens, UniProt P04150)
T1 construct: host or cells: HEK293 (HEK293/GRLuc; HEK293/GRLuc/MSR1 additionally transduced with human MSR1)
T1 sequence (P04150 524-758 limits assumed): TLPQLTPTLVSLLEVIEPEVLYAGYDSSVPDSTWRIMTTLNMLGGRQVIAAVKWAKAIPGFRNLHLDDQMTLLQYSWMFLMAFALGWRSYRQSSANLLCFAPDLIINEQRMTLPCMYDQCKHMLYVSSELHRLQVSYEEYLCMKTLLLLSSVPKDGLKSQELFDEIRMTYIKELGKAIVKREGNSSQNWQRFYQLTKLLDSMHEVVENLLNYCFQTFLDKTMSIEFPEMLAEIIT
experimental details: GR luciferase reporter assay in HEK293/GRLuc cells
Assay type: cell-based
test context: Table 11, ADCs
pEC50: −log10 of the molar value.
Reported pEC50 values follow for various molecules

Please review the following examples before continuing.
H1H21234N-N297Q-L13-PII-1 (antibody, V domains shown, heavy-chain constant region (not part of this entry): N297Q (EU); linker-payload L13-PII-1 (COT-GGGG-NHCH2-Bud) conjugated as in Example 5; four DAR ADC) VH: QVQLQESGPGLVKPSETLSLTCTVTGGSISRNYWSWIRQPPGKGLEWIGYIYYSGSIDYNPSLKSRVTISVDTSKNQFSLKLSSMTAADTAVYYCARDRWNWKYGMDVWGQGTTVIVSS VL: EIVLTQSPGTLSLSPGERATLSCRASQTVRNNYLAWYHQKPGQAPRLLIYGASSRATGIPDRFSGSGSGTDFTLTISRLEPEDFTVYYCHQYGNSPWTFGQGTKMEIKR | < 7.00
H1H21234N-N297Q-L1-PII-1 (antibody, V domains shown, heavy-chain constant region (not part of this entry): N297Q (EU); linker-payload L1-PII-1 (DIBAC-suc-PEG4-vcPAB-PII-1, payload budesonide) clicked onto azido-PEG3-amine on glutamines; DAR 4) VH: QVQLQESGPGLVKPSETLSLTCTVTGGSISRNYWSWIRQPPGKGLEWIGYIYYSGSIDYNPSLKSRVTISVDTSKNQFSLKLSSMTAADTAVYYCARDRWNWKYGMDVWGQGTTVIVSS VL: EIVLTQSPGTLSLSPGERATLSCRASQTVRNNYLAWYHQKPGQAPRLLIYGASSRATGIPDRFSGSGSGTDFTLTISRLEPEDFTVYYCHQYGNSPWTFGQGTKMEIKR | < 7.00
H1H21234N-N297Q-L6-PII-9 (antibody, V domains shown, heavy-chain constant region (not part of this entry): N297Q (EU); linker-payload L6-PII-9 (DIBAC-suc-PEG4-PII-9, payload budesonide) conjugated as in Example 5; four DAR ADC) VH: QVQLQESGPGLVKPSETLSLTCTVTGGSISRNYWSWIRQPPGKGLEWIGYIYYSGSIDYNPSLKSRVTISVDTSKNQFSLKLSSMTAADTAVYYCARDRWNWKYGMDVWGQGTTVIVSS VL: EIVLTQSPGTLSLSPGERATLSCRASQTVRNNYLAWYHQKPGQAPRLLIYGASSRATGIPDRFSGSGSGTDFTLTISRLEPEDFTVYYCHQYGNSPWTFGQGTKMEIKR | < 7.00

Next item in the queue.
According to the records, this molecule H1H21234N-N297Q-L8-PII-1 (antibody, V domains shown, heavy-chain constant region (not part of this entry): N297Q (EU); linker-payload L8-PII-1 (COT-PEG4-EvcPAB-G-NHCH2-Bud) conjugated as in Example 5; four DAR ADC) VH: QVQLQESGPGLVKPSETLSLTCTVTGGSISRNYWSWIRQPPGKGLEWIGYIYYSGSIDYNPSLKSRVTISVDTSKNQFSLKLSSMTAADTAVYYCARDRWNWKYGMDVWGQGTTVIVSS VL: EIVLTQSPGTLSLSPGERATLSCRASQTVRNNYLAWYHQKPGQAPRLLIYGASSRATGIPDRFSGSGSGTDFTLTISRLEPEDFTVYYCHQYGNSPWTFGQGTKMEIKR displays pEC50 of < 7.00
